target: HLA-A24 molecules isolated from the EBV transformed cell line KT3 (human); assay: competition with radiolabeled probe [..], purified HLA-A24; IC50 standard / IC50 peptide
Can you tell me binding ratio to standard for the items I'm about to list?
Answers are plain numbers.

Consider the worked cases shown below.
VYDFAFRDL (modifications not checked) [… (residues 49-57 of HPV16 protein E6)] = 0.061
MHQKRTAMF (modifications not checked) [… (residues 1-9 of HPV16 protein E6)] = 0.0049
RFHNIRGRW (modifications not checked) [… (residues 131-139 of HPV16 protein E6)] = 0.1

Hi, could you look up binding ratio to standard for each item in my list?
1. RAHYNIVTF (modifications not checked) [… (residues 49-57 of HPV16 protein E7)]
2. LLRREVYDF (modifications not checked) [… (residues 44-52 of HPV16 protein E6)]

0.067
0.0023
